target.under.test: ErbB2 with Exon 20 YVMA insertion (HER2-YVMA) (Homo sapiens (Human), UniProt P04626, INS775YVMA)
Sequence (P04626 other isoform, or with tags, fused parts or gaps ins YVMA behind 775): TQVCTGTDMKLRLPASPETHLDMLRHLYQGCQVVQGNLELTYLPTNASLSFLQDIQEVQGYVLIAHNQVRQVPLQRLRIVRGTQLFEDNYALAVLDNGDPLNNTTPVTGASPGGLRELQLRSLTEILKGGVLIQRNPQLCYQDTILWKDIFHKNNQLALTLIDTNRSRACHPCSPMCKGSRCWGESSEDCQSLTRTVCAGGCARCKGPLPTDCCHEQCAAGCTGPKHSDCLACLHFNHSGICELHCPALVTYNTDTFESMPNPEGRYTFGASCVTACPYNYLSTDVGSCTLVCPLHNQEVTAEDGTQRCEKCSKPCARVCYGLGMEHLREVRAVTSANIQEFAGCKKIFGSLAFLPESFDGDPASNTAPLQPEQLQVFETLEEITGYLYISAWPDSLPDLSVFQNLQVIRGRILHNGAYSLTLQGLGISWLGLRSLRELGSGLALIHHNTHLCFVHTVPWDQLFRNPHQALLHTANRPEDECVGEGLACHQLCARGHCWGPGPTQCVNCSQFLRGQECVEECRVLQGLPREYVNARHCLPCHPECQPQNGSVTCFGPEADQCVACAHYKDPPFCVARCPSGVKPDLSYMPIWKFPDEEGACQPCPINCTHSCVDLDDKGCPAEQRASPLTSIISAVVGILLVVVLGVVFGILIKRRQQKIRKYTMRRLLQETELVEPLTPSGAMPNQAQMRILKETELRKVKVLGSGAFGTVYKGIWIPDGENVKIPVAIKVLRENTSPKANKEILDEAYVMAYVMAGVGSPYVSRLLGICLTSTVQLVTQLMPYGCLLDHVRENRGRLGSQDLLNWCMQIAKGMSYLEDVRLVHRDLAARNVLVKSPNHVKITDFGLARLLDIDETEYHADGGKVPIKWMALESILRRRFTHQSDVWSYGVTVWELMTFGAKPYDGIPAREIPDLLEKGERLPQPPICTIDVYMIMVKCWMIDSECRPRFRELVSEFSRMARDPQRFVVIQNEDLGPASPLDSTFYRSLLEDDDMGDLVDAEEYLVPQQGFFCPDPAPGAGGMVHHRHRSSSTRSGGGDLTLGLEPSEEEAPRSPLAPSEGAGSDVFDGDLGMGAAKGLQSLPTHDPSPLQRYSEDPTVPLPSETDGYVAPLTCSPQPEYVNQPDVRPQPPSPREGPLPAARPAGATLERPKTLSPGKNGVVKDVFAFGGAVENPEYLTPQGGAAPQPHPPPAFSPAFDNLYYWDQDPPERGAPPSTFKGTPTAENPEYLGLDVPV
experimental.details: Cellular phosphorylation assay, constitutive ErbB2 phosphorylation (Y1196) in engineered NIH 3T3 cells, Assay 4
pIC50: −log10 of the molar value.
Hi, to clarify the labels: 1 covers pIC50 from 7 upward, 0 covers anything below 7.

# molecule, class.label
records = [
    ("Cn1cnc2cc(Oc3ccc(Nc4ncnc5cnc(N6CCOCC6)nc45)cc3F)ccc21.O=C(O)C(F)(F)F [Example 80, 2,2,2-trifluoroacetate]", 1),
    ("Cc1c(Oc2ccn3ncnc3c2)ccc(Nc2ncnc3cnc(N(C)CC(F)F)nc23)c1F [Example 317]", 0),
    ("Cc1cc(Nc2ncnc3cnc(NC4CCC4)nc23)ccc1Oc1ccc2c(c1)ncn2C [Example 14]", 1),
    ("Cc1cc(Nc2ncnc3cnc(N4CCNC(=O)C4)nc23)ccc1Oc1ccc2c(c1)ncn2C [Example 198]", 1),
    ("Cc1c(Oc2ccc3c(c2)ncn3C)ccc(Nc2ncnc3cnc(N4CCC[C@](C)(O)C4)nc23)c1F [Example 147]", 1),
    ("Cc1cc(Nc2ncnc3cnc(-c4cccnc4)nc23)ccc1Oc1ccc2c(c1)ncn2C [Example 233]", 1),
    ("Cc1c(Oc2ccc3c(c2)ncn3C)ccc(Nc2ncnc3cnc(N(C)[C@H]4C[C@@](C)(O)C4)nc23)c1F [Example 116]", 1),
    ("O[C@H]1[C@@H]2C[C@H]1CN(c1ncc3ncnc(Nc4ccc(Oc5ccn6ncnc6c5)c(Cl)c4)c3n1)C2 [Example 336]", 0),
    ("Cc1cc(Nc2ncnc3cnc(O[C@H]4CCNC[C@@H]4F)nc23)ccc1Oc1ccc2c(c1)ncn2C [Example 285]", 1),
    ("CO[C@H]1CN(c2ncc3ncnc(Nc4ccc(Oc5ccc6c(c5)ncn6C)c(C)c4)c3n2)C[C@H]1O [Example 197]", 1),
    ("Cc1cc(Nc2ncnc3cnc(N4CC[C@@H](C)C4=O)nc23)ccc1Oc1ccc2c(c1)ncn2C [Example 51]", 1),
    ("Cc1cc(Nc2ncnc3cnc(NCC(F)F)nc23)ccc1Oc1cc(F)c2c(c1)ncn2C [Example 207]", 1),
    ("Clc1cc(Nc2ncnc3cnc(N4CCN5CCOC[C@@H]5C4)nc23)ccc1Oc1ccn2ncnc2c1 [Example 431]", 0),
    ("Cc1c(Oc2ccn3ncnc3c2)ccc(Nc2ncnc3cnc(N4C[C@@H](O)C(F)(F)C4)nc23)c1F [Example 316]", 0),
    ("Cc1cc(Nc2ncnc3cnc(N4CC(C)(O)CO4)nc23)ccc1Oc1ccc2c(c1)ncn2C (stereo not drawn) [Example 191]", 1),
    ("Cc1cc(Nc2ncnc3cnc(N(C)[C@H]4C[C@@H](O)C4)nc23)ccc1Oc1ccc2c(c1)ncn2C [Example 183]", 1),
    ("Cc1cc(Nc2ncnc3cnc(O[C@H]4CN(C)C[C@H]4F)nc23)ccc1Oc1ccc2c(c1)ncn2C [Example 287]", 1),
    ("Cc1cc(Nc2ncnc3cnc(N4CCN5C(=O)COC[C@H]5C4)nc23)ccc1Oc1ccc2c(c1)ncn2C [Example 346]", 1),
    ("Cc1cc(Nc2ncnc3cnc(S(C)(=O)=O)nc23)ccc1Oc1ccc2c(c1)ncn2C [Example 2]", 0),
    ("Cc1cc(Nc2ncnc3cnc(N4CC5CCC(C4)O5)nc23)ccc1Oc1ccc2c(c1)ncn2C [Example 256]", 1),
    ("Cc1cc(Nc2ncnc3cnc(N4CCC(C)(O)CC4)nc23)ccc1Oc1ccc2c(c1)ncn2C [Example 209]", 1),
    ("Cc1cc(Nc2ncnc3cnc(N4CC[C@@H](CC#N)C4)nc23)ccc1Oc1ccc2c(c1)ncn2C [Example 201]", 1),
    ("COc1ncc2ncnc(Nc3ccc(Oc4ccc5c(C)onc5c4)c(C)c3)c2n1 [Example 6]", 0),
    ("Cc1cc(Nc2ncnc3cnc(N4C[C@H](O)C(F)(F)C4)nc23)c(F)cc1Oc1ccc2c(c1)ncn2C [Example 202]", 1),
]

* * *

The following compounds each carry a recorded IC50 for ErbB2 WT (Homo sapiens (Human)).
readout: IC50 (nM)

# compound, target.under.test, reading.unit, test.value
measured = [
    ("COC1(C)CN(c2ncc3ncnc(Nc4ccc(Oc5ccc6c(c5)ncn6C)c(C)c4)c3n2)C1 [Example 298]", "ErbB2 WT (Homo sapiens (Human))", "nM", 234),
    ("Cc1cc(Nc2ncnc3cnc(N4CCC5COCC54)nc23)ccc1Oc1ccc2c(c1)ncn2C (centres unmarked) [Example 129]", "ErbB2 WT (Homo sapiens (Human))", "nM", 15),
    ("FC(F)(F)[C@@H]1CN(c2ncc3ncnc(Nc4ccc(Oc5ccn6ncnc6c5)c(Cl)c4)c3n2)CCN1 [Example 130]", "ErbB2 WT (Homo sapiens (Human))", "nM", 36.3),
    ("Cc1cc(Nc2ncnc3cnc(N(C)CC(C)(C)CO)nc23)ccc1Oc1ccc2c(c1)ncn2C [Example 364]", "ErbB2 WT (Homo sapiens (Human))", "nM", 29.5),
    ("Cc1cc(Nc2ncnc3cnc(N4CCCC45COC5)nc23)ccc1Oc1ccc2c(c1)ncn2C [Example 230]", "ErbB2 WT (Homo sapiens (Human))", "nM", 29.2),
    ("Cc1cc(Nc2ncnc3cnc(NC4COC4)nc23)ccc1Oc1ccc2c(c1)ncn2C [Example 259]", "ErbB2 WT (Homo sapiens (Human))", "nM", 45.3),
    ("Cc1cc(Nc2ncnc3cnc(N4CCCO4)nc23)ccc1Oc1cc(F)c2c(c1)ncn2C [Example 155]", "ErbB2 WT (Homo sapiens (Human))", "nM", 52.9),
    ("Cc1cc(Nc2ncnc3cnc(N4CC5CCC(C4)O5)nc23)ccc1Oc1ccc2c(c1)ncn2C [Example 256]", "ErbB2 WT (Homo sapiens (Human))", "nM", 71.7),
]

* * *

target.under.test: ErbB2 insYVMA (HER2-YVMA, SEQ ID NO: 2) (Homo sapiens, UniProt P04626, INS775YVMA/P1170A)
Sequence (P04626 with tags, fused parts or gaps INS775YVMA/P1170A limits assumed): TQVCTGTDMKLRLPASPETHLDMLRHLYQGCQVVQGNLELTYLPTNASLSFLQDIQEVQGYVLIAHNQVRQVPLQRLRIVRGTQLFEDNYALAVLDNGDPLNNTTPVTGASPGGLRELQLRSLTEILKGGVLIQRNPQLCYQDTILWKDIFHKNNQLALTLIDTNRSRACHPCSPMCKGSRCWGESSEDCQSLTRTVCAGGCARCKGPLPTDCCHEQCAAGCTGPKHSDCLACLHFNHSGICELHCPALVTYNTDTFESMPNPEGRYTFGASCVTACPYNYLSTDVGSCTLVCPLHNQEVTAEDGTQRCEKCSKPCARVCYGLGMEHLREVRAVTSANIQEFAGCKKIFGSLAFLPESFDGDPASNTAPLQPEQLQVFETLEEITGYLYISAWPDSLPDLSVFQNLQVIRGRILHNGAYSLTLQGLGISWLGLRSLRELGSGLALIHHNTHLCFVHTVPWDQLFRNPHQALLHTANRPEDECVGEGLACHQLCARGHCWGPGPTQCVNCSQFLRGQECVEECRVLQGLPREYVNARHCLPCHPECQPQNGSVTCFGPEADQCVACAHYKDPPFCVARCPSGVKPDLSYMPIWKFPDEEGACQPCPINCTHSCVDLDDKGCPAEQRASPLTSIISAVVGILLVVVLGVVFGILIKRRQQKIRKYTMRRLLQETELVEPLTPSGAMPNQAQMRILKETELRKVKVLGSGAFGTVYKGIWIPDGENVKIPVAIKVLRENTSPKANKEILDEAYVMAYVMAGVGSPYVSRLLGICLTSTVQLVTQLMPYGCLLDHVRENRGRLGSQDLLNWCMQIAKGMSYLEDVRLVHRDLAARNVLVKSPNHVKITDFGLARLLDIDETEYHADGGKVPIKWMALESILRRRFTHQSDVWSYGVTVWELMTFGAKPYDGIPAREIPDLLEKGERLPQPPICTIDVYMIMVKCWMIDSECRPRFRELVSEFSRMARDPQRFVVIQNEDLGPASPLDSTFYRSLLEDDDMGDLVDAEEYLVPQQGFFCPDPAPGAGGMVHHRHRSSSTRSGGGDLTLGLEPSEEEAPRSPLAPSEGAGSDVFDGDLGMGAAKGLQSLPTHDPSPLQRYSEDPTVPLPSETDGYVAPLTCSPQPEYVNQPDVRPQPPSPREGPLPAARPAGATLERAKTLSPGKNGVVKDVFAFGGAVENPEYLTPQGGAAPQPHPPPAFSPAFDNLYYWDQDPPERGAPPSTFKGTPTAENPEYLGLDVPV
experimental.details: biochemical
condition.set: ErbB2 insYVMA enzyme assay; read-out: Assay 1 IC50
IC50 values by entry

# compound, IC50, nM
data = [
    ("Cc1cc(Nc2ncnc3cnc(N4CCC(C)(C#N)C4)nc23)ccc1Oc1ccc2c(c1)ncn2C (stereo not drawn)", 22.4),
    ("Cc1cc(Nc2ncnc3cnc(N4C[C@H]5CCS(=O)(=O)[C@H]5C4)nc23)ccc1Oc1ccc2c(c1)ncn2C (racemic)", 10.7),
    ("Cc1cc(Nc2ncnc3cnc(N4CCN5CCOC[C@H]5C4)nc23)ccc1Oc1ccn2ncnc2c1", 31.4),
    ("Cc1cc(Nc2ncnc3cnc(N4CCN(C)[C@@H](C)C4)nc23)ccc1Oc1ccc2c(c1)ncn2C", 38.2),
    ("Cc1cc(Nc2ncnc3cnc(N(C)[C@@H]4CCOC4)nc23)ccc1Oc1ccn2ncnc2c1", 25),
    ("O[C@H]1[C@@H]2CC[C@H]1CN(c1ncc3ncnc(Nc4ccc(Oc5ccn6ncnc6c5)c(Cl)c4)c3n1)C2", 10.4),
    ("Cc1cc(Nc2ncnc3cnc(N4CCN(C)S4(=O)=O)nc23)ccc1Oc1ccc2c(c1)ncn2C", 37.8),
    ("Cc1cc(Nc2ncnc3cnc(N4CCCC4=O)nc23)ccc1Oc1ccc2c(c1)ncn2C", 124),
    ("Cc1cc(Nc2ncnc3cnc(N4CC(C(F)F)C4)nc23)ccc1Oc1ccc2c(c1)ncn2C", 78.8),
    ("COC[C@@H](C)Nc1ncc2ncnc(Nc3ccc(Oc4ccc5c(c4)ncn5C)c(C)c3)c2n1", 36.9),
    ("Cc1cc(Nc2ncnc3cnc(N(CC(F)F)CC(F)F)nc23)ccc1Oc1ccc2c(c1)ncn2C", 161),
    ("Cc1cc(Nc2ncnc3cnc(N(C)C[C@H]4COCCO4)nc23)ccc1Oc1ccc2c(c1)ncn2C", 49.7),
    ("Cc1cc(Nc2ncnc3cnc(N4CCCS4(=O)=O)nc23)ccc1Oc1ccc2c(c1)ncn2C", 9.6),
    ("COC[C@H]1CCN1c1ncc2ncnc(Nc3ccc(Oc4ccn5ncnc5c4)c(Cl)c3)c2n1", 12.9),
    ("O[C@@H]1C[C@H]2C[C@@H]1CN2c1ncc2ncnc(Nc3ccc(Oc4ccn5ncnc5c4)c(Cl)c3)c2n1", 48.6),
]

* * *

target.under.test: ErbB2 insYVMA (HER2-YVMA, SEQ ID NO: 2) (Homo sapiens, UniProt P04626, INS775YVMA/P1170A)
experimental.details: biochemical
condition.set: ErbB2 insYVMA enzyme assay; read-out: Assay 1 IC50
pIC50: −log10 of the molar value.
readout: pIC50

# compound, target.under.test, test.value
records = [
    ("Clc1cc(Nc2ncnc3cnc(N4CCC5COCC54)nc23)ccc1Oc1ccn2ncnc2c1 (stereo not drawn)", "ErbB2 insYVMA (HER2-YVMA, SEQ ID NO: 2) (Homo sapiens, UniProt P04626, INS775YVMA/P1170A)", 8.12),
    ("Cc1cc(Nc2ncnc3cnc(N4CC5COC(C5)C4)nc23)ccc1Oc1ccc2c(c1)ncn2C (stereo not drawn)", "ErbB2 insYVMA (HER2-YVMA, SEQ ID NO: 2) (Homo sapiens, UniProt P04626, INS775YVMA/P1170A)", 7.82),
    ("Cc1cc(Nc2ncnc3cnc(OCC(C)(C)O)nc23)ccc1Oc1ccc2c(c1)ncn2C", "ErbB2 insYVMA (HER2-YVMA, SEQ ID NO: 2) (Homo sapiens, UniProt P04626, INS775YVMA/P1170A)", 7.40),
    ("C[C@H]1CN(c2ncc3ncnc(Nc4ccc(Oc5ccn6ncnc6c5)c(Cl)c4)c3n2)CCO1", "ErbB2 insYVMA (HER2-YVMA, SEQ ID NO: 2) (Homo sapiens, UniProt P04626, INS775YVMA/P1170A)", 7.68),
    ("Cc1c(Oc2ccn3ncnc3c2)ccc(Nc2ncnc3cnc(N4CC[C@@](C)(O)C4)nc23)c1F", "ErbB2 insYVMA (HER2-YVMA, SEQ ID NO: 2) (Homo sapiens, UniProt P04626, INS775YVMA/P1170A)", 7.82),
    ("Cc1c(Oc2ccn3ncnc3c2)ccc(Nc2ncnc3cnc(N(C)CC4(O)CC4)nc23)c1F", "ErbB2 insYVMA (HER2-YVMA, SEQ ID NO: 2) (Homo sapiens, UniProt P04626, INS775YVMA/P1170A)", 7.53),
    ("Cc1cc(Nc2ncnc3cnc(N4C[C@@H]5CCCN5C4=O)nc23)ccc1Oc1ccc2c(c1)ncn2C", "ErbB2 insYVMA (HER2-YVMA, SEQ ID NO: 2) (Homo sapiens, UniProt P04626, INS775YVMA/P1170A)", 7.27),
    ("Cc1cc(Nc2ncnc3cnc(N4CC[C@@]45CCOC5)nc23)ccc1Oc1ccc2c(c1)ncn2C (single isomer, unassigned) [Example 93a]", "ErbB2 insYVMA (HER2-YVMA, SEQ ID NO: 2) (Homo sapiens, UniProt P04626, INS775YVMA/P1170A)", 7.77),
    ("Cc1cc(Nc2ncnc3cnc(N4CC5CCOC5C4)nc23)ccc1Oc1ccc2c(c1)ncn2C (stereo not drawn)", "ErbB2 insYVMA (HER2-YVMA, SEQ ID NO: 2) (Homo sapiens, UniProt P04626, INS775YVMA/P1170A)", 7.69),
    ("CC(=O)N1CC2CC(C1)N2c1ncc2ncnc(Nc3ccc(Oc4ccc5c(c4)ncn5C)c(C)c3)c2n1", "ErbB2 insYVMA (HER2-YVMA, SEQ ID NO: 2) (Homo sapiens, UniProt P04626, INS775YVMA/P1170A)", 6.50),
    ("Cc1cc(Nc2ncnc3cnc(O[C@H]4CN(C)C[C@H]4F)nc23)ccc1Oc1ccc2c(c1)ncn2C", "ErbB2 insYVMA (HER2-YVMA, SEQ ID NO: 2) (Homo sapiens, UniProt P04626, INS775YVMA/P1170A)", 7.37),
    ("Cc1cc(Nc2ncnc3cnc(N4CCCCS4(=O)=O)nc23)ccc1Oc1ccc2c(c1)ncn2C", "ErbB2 insYVMA (HER2-YVMA, SEQ ID NO: 2) (Homo sapiens, UniProt P04626, INS775YVMA/P1170A)", 7.39),
    ("CNc1ncc2ncnc(Nc3ccc(Oc4cc(F)c5c(c4)ncn5C)c(C)c3)c2n1", "ErbB2 insYVMA (HER2-YVMA, SEQ ID NO: 2) (Homo sapiens, UniProt P04626, INS775YVMA/P1170A)", 8.32),
    ("Cc1cc(Nc2ncnc3cnc(N[C@H](C)COC(F)(F)F)nc23)ccc1Oc1ccc2c(c1)ncn2C", "ErbB2 insYVMA (HER2-YVMA, SEQ ID NO: 2) (Homo sapiens, UniProt P04626, INS775YVMA/P1170A)", 6.80),
    ("Cc1cc(Nc2ncnc3cnc(N4CCN(C)[C@H](C)C4)nc23)ccc1Oc1ccc2c(c1)ncn2C", "ErbB2 insYVMA (HER2-YVMA, SEQ ID NO: 2) (Homo sapiens, UniProt P04626, INS775YVMA/P1170A)", 7.62),
]
